Molecular target: androgen receptor (AR) (Rattus norvegicus, UniProt P15207)
Construct: Ventral prostates were obtained form rats castrated 24 h prior to sacrifice; from tissue; host or cells: rat ventral prostate cytosol (castrated rats, charcoal-treated)
Sequence (P15207 whole entry S389L): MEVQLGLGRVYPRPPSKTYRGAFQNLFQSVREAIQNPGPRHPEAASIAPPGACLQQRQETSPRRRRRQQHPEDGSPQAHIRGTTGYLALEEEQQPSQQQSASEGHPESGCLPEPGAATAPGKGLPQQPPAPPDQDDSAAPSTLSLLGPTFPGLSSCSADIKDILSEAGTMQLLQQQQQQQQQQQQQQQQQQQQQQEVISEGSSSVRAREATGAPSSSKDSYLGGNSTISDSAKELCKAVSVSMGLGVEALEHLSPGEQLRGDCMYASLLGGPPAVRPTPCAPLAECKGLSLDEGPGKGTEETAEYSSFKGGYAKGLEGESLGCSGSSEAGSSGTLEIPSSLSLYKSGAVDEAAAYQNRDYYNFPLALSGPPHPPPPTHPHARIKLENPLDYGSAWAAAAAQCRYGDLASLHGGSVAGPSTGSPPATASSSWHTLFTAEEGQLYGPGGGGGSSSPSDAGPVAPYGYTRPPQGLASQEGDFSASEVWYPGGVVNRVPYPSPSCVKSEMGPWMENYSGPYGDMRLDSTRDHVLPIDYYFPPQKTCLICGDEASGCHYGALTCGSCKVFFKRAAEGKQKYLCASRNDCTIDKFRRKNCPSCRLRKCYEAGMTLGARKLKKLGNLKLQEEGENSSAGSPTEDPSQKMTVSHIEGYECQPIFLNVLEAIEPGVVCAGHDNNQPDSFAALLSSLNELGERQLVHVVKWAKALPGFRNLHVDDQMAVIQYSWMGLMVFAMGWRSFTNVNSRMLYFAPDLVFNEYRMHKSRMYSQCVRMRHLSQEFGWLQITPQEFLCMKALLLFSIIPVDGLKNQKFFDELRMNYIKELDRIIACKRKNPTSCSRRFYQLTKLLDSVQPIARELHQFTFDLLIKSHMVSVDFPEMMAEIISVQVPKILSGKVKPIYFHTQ
Experiment: AR binding assay, competition with [3H]-mibolerone binding in rat ventral prostate cytosol
Conditions: test compound 0.2 μM, 1 nM [3H]-mibolerone, overnight at 0° C.
inhibition at 0.2 µM: recorded values

- Compound: "Cc1cc(NC(=O)C(C)(O)COc2ccc(F)cc2)ccc1[N+](=O)[O-] (centres unmarked) [Example 11]"
  Uom: "%"
  inhibition at 0.2 µM: 98
- Compound: "CC(O)(COc1ccc(C#N)c(F)c1)C(=O)Nc1ccc([N+](=O)[O-])c(CO)c1 (centres unmarked) [Example 51]"
  Uom: "%"
  inhibition at 0.2 µM: 73
- Compound: "Cc1cc(NC(=O)C(C)(O)COc2ccc3c(c2)OCO3)ccc1[N+](=O)[O-] (centres unmarked) [Example 26]"
  Uom: "%"
  inhibition at 0.2 µM: 62
- Compound: "COCc1ccc(OCC(C)(O)C(=O)Nc2ccc([N+](=O)[O-])c(C)c2)cc1 (centres unmarked) [Example 81]"
  Uom: "%"
  inhibition at 0.2 µM: 85
- Compound: "Cc1cc(NC(=O)C(C)(O)CNc2ccc(F)cc2)ccc1[N+](=O)[O-] (centres unmarked) [Example 52]"
  Uom: "%"
  inhibition at 0.2 µM: 90
- Compound: "COc1ccc(OCC(C)(O)C(=O)Nc2ccc([N+](=O)[O-])c(C)c2)cc1 (centres unmarked) [Example 25]"
  Uom: "%"
  inhibition at 0.2 µM: 96
- Compound: "Cc1cc(NC(=O)C(C)(O)COc2cccc(F)c2)ccc1[N+](=O)[O-] (centres unmarked) [Example 18]"
  Uom: "%"
  inhibition at 0.2 µM: 90
- Compound: "Cc1cc(NC(=O)C(C)(O)COc2ccc(F)c(F)c2)ccc1[N+](=O)[O-] (centres unmarked) [Example 28]"
  Uom: "%"
  inhibition at 0.2 µM: 90
- Compound: "Cc1cc(NC(=O)C(C)(O)COc2c(Cl)cccc2Cl)ccc1[N+](=O)[O-] (centres unmarked) [Example 21]"
  Uom: "%"
  inhibition at 0.2 µM: 26
- Compound: "Cc1cc(NC(=O)C(C)(O)COc2ccc(C#N)cc2)ccc1[N+](=O)[O-] (centres unmarked) [Example 17]"
  Uom: "%"
  inhibition at 0.2 µM: 95
- Compound: "CC(=O)Nc1ccc(OCC(C)(O)C(=O)Nc2ccc([N+](=O)[O-])c(C)c2)cc1 (centres unmarked) [Example 1]"
  Uom: "%"
  inhibition at 0.2 µM: 91

* * *

Target: androgen receptor (AR) (Rattus norvegicus, UniProt P15207)
Construct: Ventral prostates were obtained form rats castrated 24 h prior to sacrifice; from tissue; host or cells: rat ventral prostate cytosol (castrated rats, charcoal-treated)
Assay: AR binding assay, competition with [3H]-mibolerone binding in rat ventral prostate cytosol
Settings: test compound 0.2 μM, 1 nM [3H]-mibolerone, overnight at 0° C.
Measured inhibition at 0.2 µM of individual entries
Reported Metric: inhibition at 0.2 µM (%)

- Molecule: "Cc1cc(NC(=O)C(C)(O)COc2ccc(Br)cc2)ccc1[N+](=O)[O-] (stereo not drawn)"
  Target: "androgen receptor (AR) (Rattus norvegicus, UniProt P15207)"
  Reported Measurement: 75
- Molecule: "CCOC(=O)c1ccc(OCC(C)(O)C(=O)Nc2ccc([N+](=O)[O-])c(C)c2)cc1 (stereo not drawn)"
  Target: "androgen receptor (AR) (Rattus norvegicus, UniProt P15207)"
  Reported Measurement: 74
- Molecule: "Cc1cc(NC(=O)C(C)(O)COc2ccc(C#N)c(Cl)c2)ccc1[N+](=O)[O-] (stereo not drawn)"
  Target: "androgen receptor (AR) (Rattus norvegicus, UniProt P15207)"
  Reported Measurement: 92
- Molecule: "Cc1cc(NC(=O)C(C)(O)COc2ccccc2)ccc1[N+](=O)[O-] (stereo not drawn)"
  Target: "androgen receptor (AR) (Rattus norvegicus, UniProt P15207)"
  Reported Measurement: 75
- Molecule: "Cc1cc(NC(=O)C(C)(O)COc2ccc(Cl)cc2)ccc1[N+](=O)[O-] (stereo not drawn)"
  Target: "androgen receptor (AR) (Rattus norvegicus, UniProt P15207)"
  Reported Measurement: 88
- Molecule: "Cc1cc(NC(=O)C(C)(O)COc2ccc(CCCCl)cc2)ccc1[N+](=O)[O-] (stereo not drawn)"
  Target: "androgen receptor (AR) (Rattus norvegicus, UniProt P15207)"
  Reported Measurement: 89
- Molecule: "Cc1cc(NC(=O)C(C)(O)COc2ccc(C#N)c(F)c2)ccc1[N+](=O)[O-] (stereo not drawn)"
  Target: "androgen receptor (AR) (Rattus norvegicus, UniProt P15207)"
  Reported Measurement: 83
- Molecule: "Cc1cc([N+](=O)[O-])ccc1NC(=O)C(C)(O)COc1ccc(C#N)c(F)c1 (stereo not drawn)"
  Target: "androgen receptor (AR) (Rattus norvegicus, UniProt P15207)"
  Reported Measurement: 79
- Molecule: "CC(=O)Nc1ccc(OCC(C)(O)C(=O)Nc2ccc([N+](=O)[O-])c(C)c2)cc1F (stereo not drawn)"
  Target: "androgen receptor (AR) (Rattus norvegicus, UniProt P15207)"
  Reported Measurement: 93
- Molecule: "Cc1cc(NC(=O)C(C)(O)COc2cccc(Cl)c2Cl)ccc1[N+](=O)[O-] (stereo not drawn)"
  Target: "androgen receptor (AR) (Rattus norvegicus, UniProt P15207)"
  Reported Measurement: 5
- Molecule: "Cc1cc(NC(=O)C(C)(O)COc2ccc(OCCCl)cc2)ccc1[N+](=O)[O-] (stereo not drawn)"
  Target: "androgen receptor (AR) (Rattus norvegicus, UniProt P15207)"
  Reported Measurement: 87
- Molecule: "CC(=O)c1ccc(OCC(C)(O)C(=O)Nc2ccc([N+](=O)[O-])c(C)c2)cc1 (stereo not drawn)"
  Target: "androgen receptor (AR) (Rattus norvegicus, UniProt P15207)"
  Reported Measurement: 50
- Molecule: "Cc1cc(NC(=O)C(C)(O)CNc2ccc(C#N)c(Cl)c2)ccc1[N+](=O)[O-] (stereo not drawn)"
  Target: "androgen receptor (AR) (Rattus norvegicus, UniProt P15207)"
  Reported Measurement: 90
- Molecule: "Cc1cc(NC(=O)C(C)(O)COc2ccc(NC(=O)C(F)(F)F)cc2)ccc1[N+](=O)[O-] (stereo not drawn)"
  Target: "androgen receptor (AR) (Rattus norvegicus, UniProt P15207)"
  Reported Measurement: 77
- Molecule: "CCOC(=O)Nc1ccc(OCC(C)(O)C(=O)Nc2ccc([N+](=O)[O-])c(C)c2)cc1F (stereo not drawn)"
  Target: "androgen receptor (AR) (Rattus norvegicus, UniProt P15207)"
  Reported Measurement: 96
- Molecule: "CC(=O)Nc1ccc(OCC(C)(O)C(=O)Nc2ccc([N+](=O)[O-])c(C)c2)cc1C(F)(F)F (stereo not drawn)"
  Target: "androgen receptor (AR) (Rattus norvegicus, UniProt P15207)"
  Reported Measurement: 18
- Molecule: "Cc1cc(NC(=O)C(C)(O)COc2cc(C)c(Cl)c(C)c2Cl)ccc1[N+](=O)[O-] (stereo not drawn)"
  Target: "androgen receptor (AR) (Rattus norvegicus, UniProt P15207)"
  Reported Measurement: 92
- Molecule: "Cc1cc(NC(=O)C(C)(O)COc2ccc(CCO)cc2)ccc1[N+](=O)[O-] (stereo not drawn)"
  Target: "androgen receptor (AR) (Rattus norvegicus, UniProt P15207)"
  Reported Measurement: 13
- Molecule: "Cc1cc(NC(=O)C(C)(O)COc2ccc(C(=O)c3ccc(Cl)cc3)cc2)ccc1[N+](=O)[O-] (stereo not drawn)"
  Target: "androgen receptor (AR) (Rattus norvegicus, UniProt P15207)"
  Reported Measurement: 3
- Molecule: "Cc1cc(NC(=O)C(C)(O)COc2ccc(C(F)(F)F)cc2)ccc1[N+](=O)[O-] (stereo not drawn)"
  Target: "androgen receptor (AR) (Rattus norvegicus, UniProt P15207)"
  Reported Measurement: 46
- Molecule: "CC(=O)Nc1ccc(OC[C@](C)(O)C(=O)Nc2ccc([N+](=O)[O-])c(C)c2)cc1"
  Target: "androgen receptor (AR) (Rattus norvegicus, UniProt P15207)"
  Reported Measurement: 103
- Molecule: "CC(O)(COc1ccc(C#N)c(F)c1)C(=O)Nc1ccc([N+](=O)[O-])c(C=O)c1 (stereo not drawn)"
  Target: "androgen receptor (AR) (Rattus norvegicus, UniProt P15207)"
  Reported Measurement: 69
- Molecule: "COc1ccc(OCC(C)(O)C(=O)Nc2ccc([N+](=O)[O-])c(C)c2)cc1OC (stereo not drawn)"
  Target: "androgen receptor (AR) (Rattus norvegicus, UniProt P15207)"
  Reported Measurement: 34
- Molecule: "Cc1cc(NC(=O)C(C)(O)COc2ccc(Cl)c(Cl)c2)ccc1[N+](=O)[O-] (stereo not drawn)"
  Target: "androgen receptor (AR) (Rattus norvegicus, UniProt P15207)"
  Reported Measurement: 68
- Molecule: "Cc1cc(NC(=O)C(C)(O)COc2ccc(C(N)=O)cc2)ccc1[N+](=O)[O-] (stereo not drawn)"
  Target: "androgen receptor (AR) (Rattus norvegicus, UniProt P15207)"
  Reported Measurement: 25
- Molecule: "Cc1cc(NC(=O)C(C)(O)COc2ccc(F)c(Cl)c2)ccc1[N+](=O)[O-] (stereo not drawn)"
  Target: "androgen receptor (AR) (Rattus norvegicus, UniProt P15207)"
  Reported Measurement: 93
- Molecule: "Cc1cc(NC(=O)C(C)(O)COc2ccc(OC(F)(F)F)cc2)ccc1[N+](=O)[O-] (stereo not drawn)"
  Target: "androgen receptor (AR) (Rattus norvegicus, UniProt P15207)"
  Reported Measurement: 41
- Molecule: "Cc1cc(NC(=O)[C@@](C)(O)COc2ccc(C#N)c(F)c2)ccc1[N+](=O)[O-]"
  Target: "androgen receptor (AR) (Rattus norvegicus, UniProt P15207)"
  Reported Measurement: 95
- Molecule: "Cc1cc(NC(=O)C(C)(O)COc2ccccc2F)ccc1[N+](=O)[O-] (stereo not drawn)"
  Target: "androgen receptor (AR) (Rattus norvegicus, UniProt P15207)"
  Reported Measurement: 83
- Molecule: "Cc1ccc(OCC(C)(O)C(=O)Nc2ccc([N+](=O)[O-])c(C)c2)cc1 (stereo not drawn)"
  Target: "androgen receptor (AR) (Rattus norvegicus, UniProt P15207)"
  Reported Measurement: 77
- Molecule: "Cc1cc(NC(=O)C(C)(O)COc2ccc(Cl)c([N+](=O)[O-])c2)ccc1[N+](=O)[O-] (stereo not drawn)"
  Target: "androgen receptor (AR) (Rattus norvegicus, UniProt P15207)"
  Reported Measurement: 83
- Molecule: "CC(=O)Nc1ccc(OC[C@](C)(O)C(=O)Nc2ccc([N+](=O)[O-])c(C)c2)cc1F"
  Target: "androgen receptor (AR) (Rattus norvegicus, UniProt P15207)"
  Reported Measurement: 90
- Molecule: "Cc1cc(NC(=O)C(C)(O)CNc2ccc(C#N)cc2)ccc1[N+](=O)[O-] (stereo not drawn)"
  Target: "androgen receptor (AR) (Rattus norvegicus, UniProt P15207)"
  Reported Measurement: 87

FYI, the data here is from patent US7390923B2.
